# assay-summary: protein stability index of a GFP-peptide fusion (GPS, HEK-293T) (PSI 1-6); higher = more stable;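 note: 24-mer peptide tiles fused after GFP, lentivirally expressed, FACS-sorted into six equal bins by GFP/DsRed ratio, decoded by Illumina sequencing, PSI is the read-weighted mean bin number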
# cond: treatment: MLN4924 1 uM, 8 h; c terminus: a fixed tail appended
readout-name: protein stability index
# answer = number (no unit)

The examples below pair each entry with its known result.
chain	number
PSLQAWNDAPCDKTFLFICKRPYV [CD207]	2.2
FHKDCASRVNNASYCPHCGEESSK [EHMT1]	4.05
WEYPGSQGSPAVDKERFTTLVQDL [CHIT1]	3.89
VSTGSTDNSPTSNSLEGGTDATAF [ADAMTSL2]	5.31
DCSEEYLERQLQAEFIESGQYRAN [TAF7L]	4.3
QNQEYKMLLDIKTRLEQEIATYRS [KRT15]	3.46
RAESTANAGQSDNRSLAEACSEGD [ANKRD17]	5.53
KIRKPRTIYCSLQLQALNRRFQQT [DLX1]	1.95

Entry LAEYCIKTKVPSNDNSSDLLYDDL [UBE2R2] — recorded protein stability index = 4.19

get_value(item= TELVLSDCMLSEEGATLLLRGLCA [LRRC45] , readout=protein stability index) returns 2.32

The sequence identified as RGQARRLAPNFRWAIPNRQINDGM [BEX3] registered its protein stability index at 3.03

Lab note: measured protein stability index of STNGELNVDDPTGAHSNAPITAHA [CSNK1G1] was 5.29

In plain terms, NHANGLTLVSRAHQLVMEGYNWCH [PPP2CA] has a documented protein stability index of 2.49
